Assay system UniProtKB P07814; read-out recorded as IC50.

Use these answered entries as a reference point.
O[C@H]1CCCN[C@@H]1CCCn1cnc2cc(Br)cc(F)c21 | 100 to 500 nM
CN(C)c1ncnc2c1ncn2CCC[C@H]1NCCC[C@@H]1O | ≥ 500 nM
O[C@H]1CCCN[C@@H]1/C=C(\F)Cn1cnc2cc(Cl)c(Cl)cc21 | ≥ 500 nM
O[C@H]1CCCN[C@@H]1CCCn1cnc2c(F)ccc(Cl)c21 | 100 to 500 nM
OCc1nc2cc(Cl)c(Cl)cc2n1CCC[C@H]1NCCC[C@@H]1O | ≥ 500 nM

IC50 for O[C@H]1CCCN[C@@H]1/C=C/CN1CCc2ccccc21 ?
≥ 500 nM

IC50 for O[C@H]1CCCN[C@@H]1CCCn1cnc2cccc(C(F)(F)F)c21 ?
100 to 500 nM

IC50 for CC(C)CCn1cc(-c2cc(Cl)cc3ncn(CCC[C@H]4NCCC[C@@H]4O)c23)cn1 ?
100 to 500 nM

IC50 for O=c1[nH]c2cc(Br)ccc2n1CCC[C@H]1NCCC[C@@H]1O ?
≥ 500 nM

IC50 for O[C@H]1CCCN[C@@H]1CCCn1cnc2ccc(C(F)(F)F)c(Cl)c21 ?
≤ 100 nM

----------
# experimental-target: UniProt:P07814
# assay-name: PRS enzyme activity inhibition experiment ([3H]proline, liquid scintillation)
# Type: biochemical
# assay-conditions: purified PRS protein, 37° C. for 5 to 10 minutes
readout-label: IC50

COC(=O)c1cn(CCC[C@H]2NCCC[C@@H]2O)c2cc(Br)ccc12 | 0.1 to 0.5 µM
O[C@H]1CCCN[C@@H]1CCCn1cnc2c(-c3cccc(F)c3)cccc21 | ≥ 0.5 µM
Cc1ccc2ncn(CCC[C@H]3NCCC[C@@H]3O)c2c1 | ≥ 0.5 µM
Cc1cc2ncn(C/C=C/[C@H]3NCCC[C@@H]3O)c2cc1C | ≥ 0.5 µM
CC(C)Cn1c(=O)n(C)c(=O)c2c1ncn2CCC[C@H]1NCCC[C@@H]1O | ≥ 0.5 µM
Cc1ccc2c(c1)c(C)nn2C/C=C/[C@H]1NCCC[C@@H]1O | ≥ 0.5 µM

Fill in the recorded IC50 for this compound, with UniProt:P07814 as test system: O[C@H]1CCCN[C@@H]1CCCn1cnc2cnc(Cl)cc21
0.1 to 0.5 µM

Fill in the recorded IC50 for this compound, with UniProt:P07814 as test system: O[C@H]1CCCN[C@@H]1CCCn1cnc2cc(F)c(Br)cc21
0.1 to 0.5 µM

Fill in the recorded IC50 for this compound, with UniProt:P07814 as test system: CCOC(=O)c1occc1-c1cc(Cl)cc2ncn(CCC[C@H]3NCCC[C@@H]3O)c12
≥ 0.5 µM

----------
Assay system PRS (prolyl-tRNA synthetase) protein, PRS portion of EPRS (Homo sapiens (Human)); read-out recorded as IC50.

CN(C)C(=O)c1cn(C/C=C/[C@H]2NCCC[C@@H]2O)c2ccc(Br)cc12 | ≥ 500 nM
O[C@H]1CCCN[C@@H]1CCCn1cnc2cc(Cl)ncc21 | ≥ 500 nM
O[C@H]1CCCN[C@@H]1CCCn1cnc2cc(F)cc(F)c21 | ≤ 100 nM
O=[N+]([O-])c1c(Br)ccc2ncn(C/C=C/[C@H]3NCCC[C@@H]3O)c12 | ≥ 500 nM
Oc1nc2cc(Cl)c(Cl)cc2n1CCC[C@H]1NCCC[C@@H]1O | ≥ 500 nM

Fill in the recorded IC50 for this molecule, with PRS (prolyl-tRNA synthetase) protein, PRS portion of EPRS (Homo sapiens (Human)) as test system: O[C@H]1CCCN[C@@H]1CCCn1cnc2c(Cl)c(Cl)cnc21
Sequence (P07814 1007-1512): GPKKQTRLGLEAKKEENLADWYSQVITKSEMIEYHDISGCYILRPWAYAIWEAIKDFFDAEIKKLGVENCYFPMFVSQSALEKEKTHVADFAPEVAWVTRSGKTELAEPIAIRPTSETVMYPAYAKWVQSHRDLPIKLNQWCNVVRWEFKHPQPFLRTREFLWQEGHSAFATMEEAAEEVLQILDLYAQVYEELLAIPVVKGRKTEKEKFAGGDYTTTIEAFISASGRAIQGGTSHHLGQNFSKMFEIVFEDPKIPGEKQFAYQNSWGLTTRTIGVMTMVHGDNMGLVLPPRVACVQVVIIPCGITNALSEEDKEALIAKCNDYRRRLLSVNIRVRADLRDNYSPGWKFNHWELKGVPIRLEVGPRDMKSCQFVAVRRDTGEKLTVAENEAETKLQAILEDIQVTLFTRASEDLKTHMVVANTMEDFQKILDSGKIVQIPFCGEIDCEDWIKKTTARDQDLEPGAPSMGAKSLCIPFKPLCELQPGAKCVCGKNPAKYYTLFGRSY
100 to 500 nM

Fill in the recorded IC50 for this molecule, with PRS (prolyl-tRNA synthetase) protein, PRS portion of EPRS (Homo sapiens (Human)) as test system: O[C@H]1CCCN[C@@H]1/C=C/Cn1cnc2cc(F)c(F)cc21
≥ 500 nM

Fill in the recorded IC50 for this molecule, with PRS (prolyl-tRNA synthetase) protein, PRS portion of EPRS (Homo sapiens (Human)) as test system: O[C@H]1CCCN[C@@H]1CCCn1cnc2c(F)c(Br)ccc21
100 to 500 nM

Fill in the recorded IC50 for this molecule, with PRS (prolyl-tRNA synthetase) protein, PRS portion of EPRS (Homo sapiens (Human)) as test system: O[C@H]1CCCN[C@@H]1CCCn1cnc2ccc(Br)c(F)c21
100 to 500 nM

Fill in the recorded IC50 for this molecule, with PRS (prolyl-tRNA synthetase) protein, PRS portion of EPRS (Homo sapiens (Human)) as test system: Cc1c(F)ccc2c1ncn2CC#C[C@H]1NCCC[C@@H]1O
≥ 500 nM

Fill in the recorded IC50 for this molecule, with PRS (prolyl-tRNA synthetase) protein, PRS portion of EPRS (Homo sapiens (Human)) as test system: Cc1cc2c(cc1F)ncn2CCC[C@H]1NCCC[C@@H]1O
100 to 500 nM

Fill in the recorded IC50 for this molecule, with PRS (prolyl-tRNA synthetase) protein, PRS portion of EPRS (Homo sapiens (Human)) as test system: O[C@H]1CCCN[C@@H]1CCCn1cnc2ccc(C(F)(F)F)nc21
≥ 500 nM
